target system: Virion infectivity factor (Human immunodeficiency virus type 1 group M subtype B (isolate NY5)(HIV-1))
Sequence (P12504 1-150 limits assumed): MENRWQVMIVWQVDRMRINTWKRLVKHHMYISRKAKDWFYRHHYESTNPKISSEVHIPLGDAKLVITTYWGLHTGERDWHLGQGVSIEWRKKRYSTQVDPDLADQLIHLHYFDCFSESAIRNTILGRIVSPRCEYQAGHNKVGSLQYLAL
Sequence (P12504 151-192 limits assumed): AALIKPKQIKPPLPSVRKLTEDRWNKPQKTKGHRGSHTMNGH
protocol: Inhibition of HIV1 Vif
result type: IC50 (µM)

smiles structure	value measured
COc1ccccc1NC(=O)c1ccccc1Sc1ccc([N+](=O)[O-])cc1	6

###

protocol: Inhibition of HIV1 GST-tagged Vif (1 to 94 residues) to biotinylated-A3G (110 to 148 residues) (unknown origin) protein-protein interaction by TR-FRET assay

smiles structure	IC50 / nM
C/C(=C/C(=O)c1cccnc1)Nc1ccc(O)cc1	2180

###

Test system: Human immunodeficiency virus 1
protocol: Antiviral activity against HIV-1 NL4-3 infected in HEK293T cells cotransfected with VSVG and hA3G-HA assessed as reduction in viral replication preincubated for 36 hrs followed by SubT1 cells infection for 48 hrs by luciferase based assay
Assay type: functional, organism-based
run parameters: Human immunodeficiency virus 1, NL4-3, HEK-293T
result type: IC50

molecule	target system	value measured
Fc1ccc(OCC(Cn2ccnc2)c2ccc(Cl)cc2Cl)cc1 (stereo unspecified)	Human immunodeficiency virus 1	8.63 µM
